inhibition at 1 µM overview
# tgt: HDAC6 enzyme (Homo sapiens, UniProt Q9UBN7)
# Construct: transducing full length HDAC1 and HDAC6 genes into Sf-9 insect cells; GST; purchased SignalChem; host or cells: Sf-9 insect cells
# Sequence (Q9UBN7 whole entry): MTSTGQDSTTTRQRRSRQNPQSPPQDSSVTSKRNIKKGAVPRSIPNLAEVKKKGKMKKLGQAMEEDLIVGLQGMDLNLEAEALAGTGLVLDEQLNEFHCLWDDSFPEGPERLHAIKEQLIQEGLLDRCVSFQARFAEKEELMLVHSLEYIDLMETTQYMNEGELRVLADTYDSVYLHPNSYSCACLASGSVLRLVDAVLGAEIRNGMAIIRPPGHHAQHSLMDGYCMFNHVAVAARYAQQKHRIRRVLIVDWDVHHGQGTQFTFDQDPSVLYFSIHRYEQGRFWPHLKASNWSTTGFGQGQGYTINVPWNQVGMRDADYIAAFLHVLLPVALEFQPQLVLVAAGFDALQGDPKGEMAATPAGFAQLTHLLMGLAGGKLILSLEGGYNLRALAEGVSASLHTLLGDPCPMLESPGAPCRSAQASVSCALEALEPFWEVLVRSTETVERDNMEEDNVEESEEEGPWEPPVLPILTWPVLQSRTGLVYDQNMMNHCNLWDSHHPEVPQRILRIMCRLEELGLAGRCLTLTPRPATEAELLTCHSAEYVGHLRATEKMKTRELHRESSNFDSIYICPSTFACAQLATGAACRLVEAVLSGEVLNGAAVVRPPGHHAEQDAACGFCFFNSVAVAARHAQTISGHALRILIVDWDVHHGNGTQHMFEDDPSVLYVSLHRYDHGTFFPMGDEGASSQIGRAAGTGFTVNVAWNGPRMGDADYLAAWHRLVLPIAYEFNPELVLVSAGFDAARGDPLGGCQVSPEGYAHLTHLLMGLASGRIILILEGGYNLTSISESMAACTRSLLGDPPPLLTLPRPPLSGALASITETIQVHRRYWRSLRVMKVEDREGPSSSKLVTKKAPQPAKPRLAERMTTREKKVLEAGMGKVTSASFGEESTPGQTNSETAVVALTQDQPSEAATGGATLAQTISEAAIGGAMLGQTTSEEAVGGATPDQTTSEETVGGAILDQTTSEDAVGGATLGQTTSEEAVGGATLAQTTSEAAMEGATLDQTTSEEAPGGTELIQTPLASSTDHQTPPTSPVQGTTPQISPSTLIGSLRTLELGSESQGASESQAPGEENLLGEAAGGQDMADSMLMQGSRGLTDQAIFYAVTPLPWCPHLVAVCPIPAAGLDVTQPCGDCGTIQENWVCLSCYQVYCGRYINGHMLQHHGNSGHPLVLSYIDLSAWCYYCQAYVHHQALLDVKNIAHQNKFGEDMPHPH
# assay_name: HDAC1/6 Enzyme Inhibitory Assay (HDAC-Glo I/II Assay kit), HDAC6
# Assay type: biochemical
# condition_parameters: 1 μM test compound; wells without enzyme = 100% inhibition; read-out: HDAC6 inhibitory rate (%) (1 μM)
Reply with just the number (in %).

compound="NC(=O)N1CC[C@@H](N2Cc3ccc(-c4noc(C(F)(F)F)n4)cc3C2=O)[C@H](c2ccccc2)C1 [Example 43]" units_symbol=% measured_result=99
compound="O=C(N[C@@H]1CCCC[C@H]1N1Cc2ccc(-c3noc(C(F)(F)F)n3)cc2C1=O)C1CC(F)(F)C1 [Example 125]" units_symbol=% measured_result=99
compound="O=C(N[C@@H]1CCCC[C@H]1N1Cc2ccc(-c3noc(C(F)(F)F)n3)cc2C1=O)c1ccncn1 [Example 115]" units_symbol=% measured_result=99

[in] Assign inhibition at 1 µM to the following record: N#CC12CC(C(=O)N[C@@H]3CCCC[C@H]3N3Cc4ccc(-c5noc(C(F)(F)F)n5)cc4C3=O)(C1)C2 [Example 160]
[out] 99

====

# tgt: HDAC1 enzyme (Homo sapiens)
# Construct: transducing full length HDAC1 and HDAC6 genes into Sf-9 insect cells; GST; purchased SignalChem; host or cells: Sf-9 insect cells
# Sequence (Q13547 whole entry): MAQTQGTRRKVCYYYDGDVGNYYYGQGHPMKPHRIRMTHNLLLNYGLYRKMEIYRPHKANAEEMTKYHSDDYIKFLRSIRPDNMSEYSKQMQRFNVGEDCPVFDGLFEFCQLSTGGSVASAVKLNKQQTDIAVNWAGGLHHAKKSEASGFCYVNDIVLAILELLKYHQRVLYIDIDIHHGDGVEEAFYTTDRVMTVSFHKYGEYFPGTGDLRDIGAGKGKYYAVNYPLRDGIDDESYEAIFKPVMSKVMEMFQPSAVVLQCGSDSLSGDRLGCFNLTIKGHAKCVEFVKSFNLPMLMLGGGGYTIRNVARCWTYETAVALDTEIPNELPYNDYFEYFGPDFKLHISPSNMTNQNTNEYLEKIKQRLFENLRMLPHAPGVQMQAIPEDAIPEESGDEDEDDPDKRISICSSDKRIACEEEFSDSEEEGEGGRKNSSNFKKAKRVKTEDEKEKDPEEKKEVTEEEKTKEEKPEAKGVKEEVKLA
# assay_name: HDAC1/6 Enzyme Inhibitory Assay (HDAC-Glo I/II Assay kit), HDAC1
# Assay type: biochemical
# condition_parameters: 1 μM test compound; wells without enzyme = 100% inhibition; 1 µM
# Procedure: HDAC1/6 Enzyme Inhibitory Assay HDAC1 enzyme and HDAC6 enzyme each prepared by transducing full length HDAC1 and HDAC6 genes into Sf-9 insect cells and purifying by GST affinity column were purchased from SignalChem. Using these enzymes, HDAC1 and/or HDAC6 enzyme inhibitory activities of the compound of the present invention were evaluated. […] After reacting at room temperature for 20 min, luminescence level was measured using plate reader Envision (PerkinElmer). […]
Each entry gets False if its HDAC1 inhibitory rate (%) (1 μM) stays under 20%, and True if its HDAC1 inhibitory rate (%) (1 μM) is 20% or above.

// below: answered molecules
molecule="O=C1c2cc(-c3noc(C(F)(F)F)n3)ccc2CN1[C@@H]1CCOC[C@H]1c1ccccc1 (relative stereo) [Example 35]" tgt="HDAC1 enzyme (Homo sapiens)" label=True
molecule="O=C(N[C@H]1CCOC[C@H]1N1Cc2ccc(-c3noc(C(F)(F)F)n3)cc2C1=O)C1CC1(F)F (single isomer, unassigned) [Example 213]" tgt="HDAC1 enzyme (Homo sapiens)" label=True
molecule="O=C(N[C@@H]1CCCC[C@H]1N1Cc2ccc(-c3noc(C(F)(F)F)n3)cc2C1=O)C1CCCCCO1 (stereo partly drawn) [Example 133]" tgt="HDAC1 enzyme (Homo sapiens)" label=False
molecule="O=C(N[C@@H]1CCCC[C@H]1N1Cc2ccc(-c3noc(C(F)(F)F)n3)cc2C1=O)N1CC2CC1CO2 (stereo partly drawn) [Example 156]" tgt="HDAC1 enzyme (Homo sapiens)" label=False
molecule="O=C(N[C@@H]1CCOC[C@@H]1N1Cc2ccc(-c3noc(C(F)(F)F)n3)cc2C1=O)C1CC1(F)F (single isomer, unassigned) [Example 212]" tgt="HDAC1 enzyme (Homo sapiens)" label=False

Now, please, on to the next molecule.
[in] In plain terms: is recorded HDAC1 inhibitory rate (%) (1 μM) at least 20% for CC1(C(=O)N[C@@H]2CCCC[C@H]2N2Cc3ccc(-c4noc(C(F)(F)F)n4)cc3C2=O)CC1(F)F (stereo partly drawn) [Example 170] ?
[out] False

====

# tgt: HDAC9 enzyme (Homo sapiens, UniProt Q9UKV0)
# Construct: transducing full length HDAC9 gene into Sf-9 insect cells; made in house; host or cells: Sf-9 insect cells
# Sequence (Q9UKV0 whole entry, species assumed): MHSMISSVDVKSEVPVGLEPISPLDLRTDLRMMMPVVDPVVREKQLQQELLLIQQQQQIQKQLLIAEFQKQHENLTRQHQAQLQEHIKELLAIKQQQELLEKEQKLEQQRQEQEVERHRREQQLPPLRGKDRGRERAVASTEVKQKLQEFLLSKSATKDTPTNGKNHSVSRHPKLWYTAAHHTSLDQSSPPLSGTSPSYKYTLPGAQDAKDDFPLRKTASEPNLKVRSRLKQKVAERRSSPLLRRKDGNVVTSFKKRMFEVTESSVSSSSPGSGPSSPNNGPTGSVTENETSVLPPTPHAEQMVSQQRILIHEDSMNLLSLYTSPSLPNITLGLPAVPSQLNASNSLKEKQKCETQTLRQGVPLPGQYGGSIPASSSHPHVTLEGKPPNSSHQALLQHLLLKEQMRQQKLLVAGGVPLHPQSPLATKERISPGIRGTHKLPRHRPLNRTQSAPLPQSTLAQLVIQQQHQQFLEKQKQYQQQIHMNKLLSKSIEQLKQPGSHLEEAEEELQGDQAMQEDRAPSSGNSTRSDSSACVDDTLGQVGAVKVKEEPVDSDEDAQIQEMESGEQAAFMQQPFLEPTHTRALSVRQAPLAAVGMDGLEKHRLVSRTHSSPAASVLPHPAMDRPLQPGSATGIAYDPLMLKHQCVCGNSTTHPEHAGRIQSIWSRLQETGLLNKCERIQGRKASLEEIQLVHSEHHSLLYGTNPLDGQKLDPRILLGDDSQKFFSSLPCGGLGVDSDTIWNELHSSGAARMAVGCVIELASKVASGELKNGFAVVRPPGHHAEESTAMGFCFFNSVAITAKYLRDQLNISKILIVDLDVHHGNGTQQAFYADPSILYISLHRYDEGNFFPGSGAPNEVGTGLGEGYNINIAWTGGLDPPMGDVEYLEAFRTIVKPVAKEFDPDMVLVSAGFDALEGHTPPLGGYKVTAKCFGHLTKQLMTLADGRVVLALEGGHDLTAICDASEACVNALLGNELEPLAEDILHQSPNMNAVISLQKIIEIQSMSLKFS
# assay_name: HDAC9 Enzyme Inhibitory Assay (HDAC-Glo class IIa)
# Format: biochemical
# condition_parameters: 1 μM test compound; wells without enzyme = 100% inhibition; read-out: HDAC9 inhibitory rate (%) (1 μM)
Each entry gets no (0) if its inhibition at 1 µM stays under 70%, and yes (1) if its inhibition at 1 µM is 70% or above.

// below: answered compounds
compound="CC(=O)N1CC[C@@H](N2Cc3ccc(-c4noc(C(F)(F)F)n4)cc3C2=O)[C@H](c2ccccc2)C1 [Example 20]" label="yes (1)"
compound="CC(C)(C)OC(=O)N1CC[C@@H](N2Cc3ccc(-c4noc(C(F)(F)F)n4)cc3C2=O)[C@H](c2ccccc2)C1 [Example 13]" label="yes (1)"
compound="O=C1c2ccc(-c3noc(C(F)(F)F)n3)cc2CN1[C@H]1CCNC[C@H]1c1ccccc1 (relative stereo) [Example 79]" label="yes (1)"

[in] In plain terms: is recorded inhibition at 1 µM at least 70% for O=C(NC1CC1)N[C@@H]1CCCC[C@H]1N1Cc2ccc(-c3noc(C(F)(F)F)n3)cc2C1=O [Example 154] ?
[out] no (0)

[in] In plain terms: is recorded inhibition at 1 µM at least 70% for N[C@H]1CCCC[C@H]1N1Cc2ccc(-c3noc(C(F)(F)F)n3)cc2C1=O (relative stereo) [Example 199] ?
[out] yes (1)

[in] In plain terms: is recorded inhibition at 1 µM at least 70% for O=C1NCCC1C(=O)N[C@@H]1CCCC[C@H]1N1Cc2ccc(-c3noc(C(F)(F)F)n3)cc2C1=O (stereo partly shown) [Example 108] ?
[out] no (0)

[in] In plain terms: is recorded inhibition at 1 µM at least 70% for O=C1CCCN1[C@@H]1CCCC[C@H]1N1Cc2ccc(-c3noc(C(F)(F)F)n3)cc2C1=O [Example 191] ?
[out] no (0)

====

# tgt: HDAC9 enzyme (Homo sapiens)
# Construct: transducing full length HDAC9 gene into Sf-9 insect cells; made in house; host or cells: Sf-9 insect cells
# assay_name: HDAC9 Enzyme Inhibitory Assay (HDAC-Glo class IIa)
# Assay type: biochemical
# condition_parameters: 1 μM test compound; wells without enzyme = 100% inhibition; read-out: HDAC9 inhibitory rate (%) (1 μM)
inhibition at 1 µM overview
Reply with just the number (in %).

compound="O=C(N[C@@H]1CCOC[C@H]1N1Cc2ccc(-c3noc(C(F)(F)F)n3)cc2C1=O)[C@H]1CC1(F)F [Example 190]" tgt="HDAC9 enzyme (Homo sapiens)" measured_result=84
compound="O=C1c2cc(-c3noc(C(F)(F)F)n3)ccc2CN1[C@@H]1CCCC[C@H]1NC(=O)C1(CO)CCOCC1 [Example 113]" tgt="HDAC9 enzyme (Homo sapiens)" measured_result=32
compound="O=C(N[C@@H]1CCCC[C@H]1N1Cc2ccc(-c3noc(C(F)(F)F)n3)cc2C1=O)C1COC1 [Example 127]" tgt="HDAC9 enzyme (Homo sapiens)" measured_result=47
compound="O=C1C[C@H](C(=O)N[C@@H]2CCCC[C@H]2N2Cc3ccc(-c4noc(C(F)(F)F)n4)cc3C2=O)CN1 [Example 130]" tgt="HDAC9 enzyme (Homo sapiens)" measured_result=30
compound="CC(C)(O)C(=O)N[C@H]1CCCC[C@@H]1N1Cc2ccc(-c3noc(C(F)(F)F)n3)cc2C1=O [Example 219]" tgt="HDAC9 enzyme (Homo sapiens)" measured_result=50
compound="O=C1c2cc(-c3noc(C(F)(F)F)n3)ccc2CN1[C@@H]1CCCC[C@H]1NC(=O)C1(CO)CC1 [Example 153]" tgt="HDAC9 enzyme (Homo sapiens)" measured_result=52
compound="CC(C)(C)OC(=O)N1CC[C@H](N2Cc3ccc(-c4noc(C(F)(F)F)n4)cc3C2=O)[C@H](c2ccccc2)C1 [Example 14]" tgt="HDAC9 enzyme (Homo sapiens)" measured_result=48
compound="O=C(N[C@H]1CCCC[C@@H]1N1Cc2ccc(-c3noc(C(F)(F)F)n3)cc2C1=O)C1CC1 [Example 33]" tgt="HDAC9 enzyme (Homo sapiens)" measured_result=46

[in] Assign inhibition at 1 µM to the following record: O=C(N[C@@H]1CCCC[C@H]1N1Cc2ccc(-c3noc(C(F)(F)F)n3)cc2C1=O)N1CCC(F)(F)C1 [Example 169]
[out] 40

[in] Assign inhibition at 1 µM to the following record: CC1(C(=O)N[C@H]2CCC[C@@H]2N2Cc3ccc(-c4noc(C(F)(F)F)n4)cc3C2=O)COC1 [Example 152]
[out] 38

[in] Assign inhibition at 1 µM to the following record: O=C(N[C@H]1CCCC[C@@H]1N1Cc2ccc(-c3noc(C(F)(F)F)n3)cc2C1=O)[C@H]1CCCO1 [Example 218]
[out] 29

[in] Assign inhibition at 1 µM to the following record: O=C(N[C@@H]1CCCC[C@H]1N1Cc2ccc(-c3noc(C(F)(F)F)n3)cc2C1=O)N1CC2(COC2)C1 [Example 161]
[out] 20

[in] Assign inhibition at 1 µM to the following record: CC(C)(C)OC(=O)N1CC[C@@H](c2ccccc2)[C@H](N2Cc3cc(-c4noc(C(F)(F)F)n4)ccc3C2=O)C1 (relative stereo) [Example 71]
[out] 73

[in] Assign inhibition at 1 µM to the following record: O=C(N[C@@H]1CCCC[C@H]1N1Cc2ccc(-c3noc(C(F)(F)F)n3)cc2C1=O)N1CC2CCC(C1)O2 [Example 146]
[out] 23
